Data origin: the DeepSol protein solubility set

assay: soluble on expression in E. coli; label from the status in PepcDB or PDB records
readout_name: soluble on expression in E. coli

sequence_text	readout_name	reported_result
VSLEDYNLSEDLKVRLDSAEGIFVSGAPGSGKSTFVSALAERYKNMDKIVKTMESPRDLQVDEEITQYAPLEGSMEKTCDILLLVRPDYTIYDEVRKTKDFEIFADMRMAGVGMVGVVHASKAIDSIQRLIGRVELGIIPQIVDTVVFIENGKIGKVYEVEFNVKVPH	soluble on expression in E. coli	not soluble
SLIHIAIVEDENKDRELLKEYLDRFQAEKGEPLFVHVYPDGEEFLESFSSGKFDILLLDIHMQYMNGMATAQEIRKSDENVLIIFITNLVQYAVQGYSVRAFDFIVKPVEYSVFAQKLYRATQRLNRTIHSCVRFKVLDQIVNLQLSGILYFEIVARKLFIYTDTEIYRCNDTLHSIEEKLNDGHFFRCHAGYLVNVAYVRSVGKDYAMVGSARIPVSKHRRKAFLDAIGNYLGSKEG	soluble on expression in E. coli	not soluble

====

test: soluble on expression in E. coli; label from the status in PepcDB or PDB records

sequence_text	soluble on expression in E. coli
MSLNKTNYNNIISINQQREFVLFQNIQKECPLLVVFDLDDTLIHTHINTNNLCINSSDIFTIRVNEIKYYCEVRKGVVETLERLSKQFRIMIYTASKKEYADQVVSHLEKNCKLFSKILYREDCLEEEGFIYKTIHNINYNVKRIICIDDNPSAWKKLENVYVCKKYNGGIDDEMIDIEKTFIKCCILCFLFVEGHHHHHH	soluble
AWVDQTPRTITKETGESLTIKCVLKDHSCGLSSTTWYRTQLGSTNEKTISIGGRYDETVDKGSKSFSLRISDLRVEDSGTYKCQADYSPSCYSYPSLESAVEGAGTVLTVK	soluble

====

experiment: soluble on expression in E. coli; label from the status in PepcDB or PDB records
readout_name: soluble on expression in E. coli

sequence_text	reported_result
AKGEVWEAKPVGAAALPQWIRGRLDKIGLGIEADALALFAERVEGNLLAARQEIDKLGLLYPKGHTVNIDEAQTAVANVARFDAFQLAGAWMKGDVLRVCRLLDGLREEGEEPVLLLWAVAEDVRTLIRLAAALKQGQSIQSVRNSLRLWGDKQTLAPLAVKRISVVRLLDALKTCAQIDRIIKGAEDGDAWTVFKRLVVSLAE	soluble
MGSDKIHHHHHHMMSFREDKLLATNVPMRIVSLISKINEYKGKQVLYNQQAPEVLNTLKNVAIIQSTRASNSLEGITIKDTRLIDIMQNKVQPANRSEGEIAGYRDVLATIHSSYDAIPVKPSILLQFHRDLYRFISLEGGSWKNSDNAIEEVYPDGSKFVRFNPVSSFATPGAIEELCKFYNQYSNSGEIDSLMLISATILDFLCIHPFCDGNGRMARLLTLLLLYKEGYEVGRFISLEQIIEESKDAYYDTLYQSSQNWHEGKHDLLIWSEYLLGIILAAYKELMDRVGKVSRARGNKAMRVEETIDHFVSNFSINDIRRRCPDISPSTINRVLAKLRDANKIEVLGIGRGAKWKKNY	not soluble
MGSDKIHHHHHHMRFGWLEQPFTTLEQLDSLFEIHSPRKFTFADSFYAHENGRHFIFFEEVDDQHPVGFLSVLEVFKDGTYTPPETILKLDYHLSYPCVFKIDSTWYMIPESSANKTIELWKCTDFPMKWEKHSNLMENIEAVDSTPFYHEGLWYLFTSTRRDCKKFGDRLDLFFTEDILNPNWQEHPMNPACRGSQQFRMAGKPFIYKGQLVRPSQDSLKRYGGNIELKAITQLSPAAYEEKLLEVVLPDWNQADDGCHTINVEDNFVVLDAIRLTPKNN	not soluble
QKTGIYDSLRLKLEIVKFYSPNERDAAFHSGNVEGTVIDYTGAAMQQAGGIDLQLVMRLDGYFRLVMSKDYTGESLETLKGKNLGISRNTVIEYTTDRIINTAGLDESEITKTEVNKIPLRLEMLRSGQIDAAVLPDPFITIAMADG	not soluble
SKFGKSLSNQIEQTLPEWQDKFLSYKELKKRLKLIGSKTADRPVKRLRLDEFSVGISKEEINFIQLLEDELEKFNNFFVEKEEEYIIRLKEFRDRIAKAKDSMEKMIKIRKEIVDFHGEMVLLENYSALNYTGLVKILKKYDKRTGDLMRLPFIQKVLQQPFYTTDLLFKLVKESEAMLDQIFPANETESEIIQAELSEHKFMESLHMKSTIAALRVLKEIRSGSSTVSVFSLPPLQLNGLDETWKKIPLLEQEAK	soluble
MKKTLILGATPETNRYAYLAAERLKSHGHEFIPVGRKKGEVLGKTIINERPVIEGVDTVTLYINPQNQLSEYNYILSLKPKRVIFNPGTENEELEEILSENGIEPVIGCTLVMLSAGT	not soluble
MIKQTIVALLLSVGASSVFAAGTVKVFSNGSSEAKTLTGAEHLIDLVGQPRLANSWWPGAVISEELATAAALRQQQALLTRLAEQGADSSADDAAAINALRQQIQALKVTGRQKINLDPDIVRVAERGNPPLQGNYTLWVGPPPSTVTLFGLISRPGKQPFTPGRDVASYLSDQSLLSGADRSYAWVVYPDGRTQKAPVAYWNKRHVEPMPGSIIYVGLADSVWSETPDALNADILQTLTQRIPQ	not soluble
MDLFPDEVYVFTPKGHIMELPKGATPVDFAYTVHSGVGNSCVAAKVNRRLVPLSIPLSNGQTVEIITAPGAHPNPAWLEHHHHHH	not soluble
MGHHHHHHGGHMSLPKFSPCLWFNTQAEEAANFYTTIFEKGAILSKTNYVNEEHQPQGTSLMTIEFTLANQTIIGLNGGPEFSFTPASSFFVECTTLPQTETLWKNLTADGQILMPFGEYPFSPLYGWVVDKFGVSWQVSFSGKEQTIVPTFMFANEKYGEAAKALSEWLAIFGPGEIIEKVEYEDGNIAQALFTLQEQPFRVMDARDKHDFDFTMAFSIYIDCENQEEIDRLWQQVTAKGKEWPCGWMEDQFGVSWQTGNPELKRYLSDSNPARANEVTKKLYQMKKIDLNQLKEVYDKYNHEGGS	soluble
KTRPYMEEVLYVWKLKQLHNKIFRKLKSIKAAASNDDVKALTTLKFYYTTQRQVFELDNNTLTMSSVNKELEAIDQIEVDKSLHLDIASFEEGWIDTY	soluble
MSDPADVFDLVGLTEYEATALEQLLSLGRTTAPNLAEASGIPKARVYGVLESLSDRGFIKLIPGRPKEYQPKSPSDILDRAVENRKQSYESFAADMDSYRDAFLAEYEPRFERANEDISPTAELFHVVDVGEPSERETRRLYDDADETLRVITNSFAYLDNVERALAETLDRGVEVNVLFLHPDALPPEKAAVQADIVDRLTAEYPAIDLRFSTEKLPWRGTLVDPSMDYDSGEAILLVEEPDVPNHMRQAAITDNGSFVAGMKRYFDLVWEYESVQRSN	not soluble
MFYLGIDAGGTKTSFMLINHLGEVLSTYTSGTCHIHQVGFDGFRKGIQEGIDKICSEINICRDDLSYSFLGLPAYGENESEKLKMNSIIAEILGENKFSCGNDVEVALAGSLAGQPGICIILGTGAIASGITNDLKTARTSGWGYICGDEGSGYWIAKKGVEIFGKQSDHRLERTALYDIFKNELKLENDFDLIFLIKDKYKQDRTKVANLAMLVYKAALKGDKYALDIYRQAAKECLLMVNGLTNQLEFTGVLNISYSGSVFNSKEFILDPLRNYLQDNYTAFNLTAPILPPIKGAALNALKLHKGEIPEGVVHNLAKEPKEILVLEHHHHHH	not soluble

====

assay: soluble on expression in E. coli; label from the status in PepcDB or PDB records

sequence_text	soluble on expression in E. coli
MSLPVKNLRHLPKAHLHLHLEGAMRPATLTEFCERYKIKRPSDTRGKQFSNFAAFNEVYRAASDSIRTRQDLARVIQEVAEDAAKDGATWIEPAFDADRYTVLRADKSLRLFETPYEGWLFALKAARNASEKTGVGISFISAIDRTRPIDQANERAKLTTNLIASQKHQITAKNINGGEPYAGIIGLGLHGNEEGYPPEIFAEAFQIVTKKTEALSIPHAGEIAPTPGKGPESVEKAIDILSASRIQHGVLAIQDEVLIEKIKEKNICLDVCPSSNIQLSVFPNIQAHPLPLLIESGVSCSLGSDDPLLFGPSLLDEFELCREQMRLSDNTLAQLARNSFKYSGAPKKIVEQGLRDIDTWLNEGHHHHHH	soluble
MSLTEDLNKRVEQAAQGITPQTKPDERRRYLGSLRERVLVRLNNTEVKDPKLTALFLKHITDFKGYTILINGNITDDGFLGEVEAACSKEDIPFTLVNNETAKTGPEDTAILVVAKTAINHPRVEINQVYPPEMPKTELSAPSKKHESFWHHLFHKDEGHHHHHH	soluble

====

experiment: soluble on expression in E. coli; label from the status in PepcDB or PDB records
readout_name: soluble on expression in E. coli

sequence_text	readout_name	reported_result
MFSQAQFNVTMAEEDRWKQWYPNMEMIVNNKGPKLIFPELNFNITGLEEKSRYVVLLSIEKYDNIRYGYRNGKWGPSKVRHATKKEQEIKYFLHPDGTKLGKELMKETIKFDTVRITNHKKFMDKDNVFFVETMHKYVPVLTVKNITNVESANHSMRMEVAQFFPVTVYNQESIGNWKSKFHKNSTYGNRLDGGNKRKNTDSSEERTSKRSKNETEIAVSDILQVASQSENYNESTNSGRLQNEISSSIHQFPSTSYQNQYPHAYPTVNTPPIYVQQFTALFDEIHNQFDPKTKQNRVAKNVQYLSSVPQFAINQKENIHQNAPDYPVSQFPNQYPYGSYPYYYPYFQSSQQFPHLNYSMNNSIYSDSSFQSSFSAENSYFDENGNPIHYPYYSSN	soluble on expression in E. coli	not soluble
MGSDKIHHHHHHMAMAHGRRRVFGSVEHRKIDMSFRPLFGSGRIRTAGEQPAQPTTASWPGSSVVFDRRRWTCREAELRWTAPHHVLVLTEEGATSQTSIRSDGKMVYEGRDRSGAITFVPAGVERLGAYRDVDLTYSALWIDPRSISPASEHLKDLPVLINKSDTVISALLKSLSSEISNGHIPDSAYVDHLIALVTLRIRGFADEPVPAPRHDSLGSRVVKRVRDYVDAHLDGDISLGDLADVAGVASDSFARRFKVTTGFAPYAYVLEERIRRSEALLCETDTTLSAIALACGFSSQSHFTTTFKRLRGVTPQAYRSKVIPES	soluble on expression in E. coli	not soluble
